Items are presented alongside their recorded GI50.
- Tested on: ACHN
- PROTOCOL DETAILS: NCI tumour cell line growth inhibition, 48 h
Active and inactive are the calls of the source. Cut-off read from the data, not from the text of the source: active = GI50 up to about 1.1 µM and inactive = higher.

For orientation, consider the following solved cases.
[
  {
    "COMPOUND": "O=C1Cc2ccccc2N1c1c(Cl)cccc1Cl",
    "GI50": "70.1 µM (inactive)"
  },
  {
    "COMPOUND": "Cc1cccc(/C=N/NC(=S)NC2CCCCC2)n1",
    "GI50": "25.8 µM (inactive)"
  },
  {
    "COMPOUND": "Cc1ccc(/C=C/C(=O)c2cc(CN(C)C)c(O)c(CN(C)C)c2)cc1",
    "GI50": "12.1 µM (inactive)"
  },
  {
    "COMPOUND": "COC(=O)C(CCCCNC(=O)CNC(=O)OCc1ccccc1)NC(=O)C(CCCCNC(=O)CNC(=O)OCc1ccccc1)NC(=O)OCc1ccccc1 (stereo not given)",
    "GI50": "> 100 µM (inactive)"
  }
]

INPUT: Provide measured GI50 value, entry: O=C1NC2NC3NC(=O)NC3NC2N1 (stereo not given)
OUTPUT: > 100 µM (inactive)

INPUT: Determine its reported GI50: CC(=O)OCC(OC(C)=O)C(OC(C)=O)C(/C=N\Nc1nc2ccccc2c(=O)[nH]1)OC(C)=O (stereo not given)
OUTPUT: > 100 µM (inactive)

INPUT: Tell me its GI50 given CC(Oc1ccccc1Cl)C(=O)NN1C(=O)CSC1c1ccccc1 (stereo not given) as the entry.
OUTPUT: > 100 µM (inactive)

INPUT: Please report the measured GI50 for COC(=O)C1=C(C(=O)OC)C2(/N=C(\Nc3ccccc3)c3ccccc3)N(c3ccc(OC)cc3)CC(c3ccccc3)N2O1 (stereo not given)
OUTPUT: > 100 µM (inactive)

INPUT: Tell me GI50 reported for `CC(=O)Nc1cc2c3c(c1)CCCN3CCC2`
OUTPUT: > 100 µM (inactive)

INPUT: Using known records, supply GI50 for CN1CCN(CN2C(=O)C3C4C=CC(C3C2=O)C2C3C(=O)N(CN5CCN(C)CC5)C(=O)C3C42)CC1 (stereo not given)
OUTPUT: 28.2 µM (inactive)
